# SYSTEM TESTED: Ret kinase (Homo sapiens, UniProt P07949)
# Sequence (P07949 658-1114 limits assumed): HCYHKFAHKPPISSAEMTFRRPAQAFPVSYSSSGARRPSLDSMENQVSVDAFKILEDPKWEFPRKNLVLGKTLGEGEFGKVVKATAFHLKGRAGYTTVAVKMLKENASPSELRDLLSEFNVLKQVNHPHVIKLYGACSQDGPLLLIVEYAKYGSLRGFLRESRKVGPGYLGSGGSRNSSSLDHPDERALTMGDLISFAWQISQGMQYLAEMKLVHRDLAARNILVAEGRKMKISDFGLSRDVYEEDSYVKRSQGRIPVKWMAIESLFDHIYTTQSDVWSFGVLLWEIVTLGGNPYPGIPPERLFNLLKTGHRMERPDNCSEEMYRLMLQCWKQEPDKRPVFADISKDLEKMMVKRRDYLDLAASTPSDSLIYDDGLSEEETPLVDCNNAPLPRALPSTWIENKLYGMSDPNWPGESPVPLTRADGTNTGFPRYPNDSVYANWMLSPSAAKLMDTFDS
MEASURED QUANTITY: pIC50
To interpret pIC50, take it as minus log10 of a concentration measured in moles per litre.

Fill in the blank: the reported pIC50 of `CC1(C)Oc2ccc(Nc3nc(Nc4ccc(N5CCOCC5)nc4)ncc3F)nc2NC1=O` is ____.
7.32

###

# Test system: mast cell activation induced by FcγR cross-linking (CHMC cells)
# PROTOCOL DETAILS: LD Tryptase CHMC: tryptase release assay
# Type: cell-based, Human
# RUN CONDITIONS: Homo sapiens, Mast cell; Table 2, unit inferred; read-out: LD Tryptase CHMC
Would you mind telling me the reported IC50 of each entry?
Number only, in nM; omit the unit.

Which value of IC50 has been reported for `CC1(C)Oc2ccc(Nc3nc(Nc4ccc(N5CCOCC5)nc4)ncc3F)nc2NC1=O` in the records?
90

# input compound: `CC1(C)Oc2ccc(Nc3nc(Nc4ccc(N5CCOCC5)cc4)ncc3F)nc2NC1=O` ; wanted: its IC50
80

Any idea what its IC50 is? The compound is COc1cc(Nc2ncc(F)c(Nc3ccc4c(n3)NC(=O)C(C)(C)O4)n2)cc(OC)c1OC [reference compound]
40
